Give growth for every item shown.
tested on: SNB-19 CNS; assay: NCI-60 one-dose screen, 48 h (100 = growth as untreated, 0 = no growth, -100 = all killed); settings: 10 µM unless noted
This is part of a sample that, as a whole, favours compounds with a hit. Of some 83,000 tested, about 20% had one in any assay.
Form entry: value (%) — number only.

# input Record COc1ccc(-c2n[nH]nc2-c2cc(OC)c3c(c2)OCO3)cc1 : what is its growth with SNB-19 CNS?
# output 48.7

# input Can you look up growth on SNB-19 CNS for CCCNC(=S)N/N=C(\C)c1ccccn1 ?
# output 38.4

# input I'm curious: which growth was measured for C#CC[C@@H]1C[C@]2(C)[C@H]3CC[C@@H]4[C@H]5C(C(=C)C)CC[C@]5(C(=O)NCCN(CCN)CCN)CC[C@@]4(C)[C@]3(C)CC[C@H]2C(C)(C)[C@H]1OC(C)=O (stereo partly specified) tested on SNB-19 CNS?
# output 69.8

# input Query the reported growth for SNB-19 CNS; item: Oc1ccc(Nc2ncnc3c2sc2ncccc23)cc1
# output 27.6

# input Could you share what growth was measured for Cc1[nH]n(C(=O)c2ccncc2)c(=O)c1N=Nc1ccc(O)c(C(=O)O)c1 , tested on SNB-19 CNS?
# output 116

# input Find the measured growth: item CN1CCN(Cc2ccc(NC(=O)c3cncc(C#Cc4ncc5cnccn45)c3)cc2C(F)(F)F)CC1 , target or system SNB-19 CNS.
# output 94.5

====

system: OVCAR-4 ovarian; assay: NCI-60 one-dose screen, 48 h; conditions: 10 µM unless noted
This is part of a sample that, as a whole, favours compounds with a hit. Of some 83,000 tested, about 20% had one in any assay. Activity calls are given as the source filed them. The calls were made as follows: active = growth percent below 10; inactive = the rest.
// allowed return values: TRUE for active, FALSE for inactive

# input In this assay, the call recorded for O=C(C(=O)c1cccnc1)c1cccnc1 was what?
# output FALSE

# input Hey, what did the test say about Cc1cc(NC(=O)c2ccc(N)cc2)ccc1N=Nc1ccc2cc(S(=O)(=O)O)cc(S(=O)(=O)O)c2c1 ?
# output FALSE

# input Dear all, I need the recorded test outcome for O=C(/C=C/c1cccc([N+](=O)[O-])c1)c1ccc(Nc2nc(N3CCCCC3)nc(N3CCCCC3)n2)cc1 , thank you.
# output FALSE

# input Hi, do you know how N#Cc1c(N)n(C2OC(CO)C(O)C2O)c2ncnc(N)c12 (stereo not given) came out in this test?
# output TRUE

# input How was FC(F)(F)C1=NNC(c2ccc3ccccc3c2)=NN1 classified in this test?
# output FALSE

====

Tested on: TK-10 renal
Test: NCI-60 one-dose screen, 48 h
Conditions: 10 µM unless noted
Protocol: Growth inhibition of the TK-10 human tumor cell line is measured as a screen for anti-cancer activity. Cells are grown in 96 well plates and exposed to the test compound for 48 hours. Compounds are tested at a single concentration, which is 10^-5 M for most compounds. The reported endpoint is percent growth (GI% or GIPRCNT), where numbers from 0 - 100% represent growth inhibition, and numbers from -100% - 0 represent cell death. For example, a value of 40 represents 60% growth inhibition. […]
The panel holds about 83,000 compounds, 20% with a hit somewhere; the sample as a whole holds those more often. Calls of active or inactive are those of the source. How the source made its calls: active means growth percent below 10; inactive means the rest.
// classify into 1 for active, 0 for inactive

# input State the result this test recorded for CCCCc1n(Cc2ccc3ccccc3n2)cc[n+]1Cc1ccc2ccccc2n1 .
# output 0

# input GET /call?item= O=C1OCC2=C1C(c1ccc(Cl)c(Cl)c1)c1cc3c(cc1N2CCO)CCC3 (stereo unspecified) returns the recorded outcome of this test.
# output 0

# input Answer briefly: the call reported for Cc1ccc(Nc2nc(NCCO)c3ccccc3n2)cc1C in this assay.
# output 0

# input For this compound, state the assay outcome: COc1cc(C2CC(c3cccc(Nc4ccnc5cc(Cl)ccc45)c3)=NN2c2ccccc2)cc(OC)c1OC (stereo unspecified)
# output 0

# input Called result for CCN(CC)CCNc1c(C)cc(CO)c(Cl)c1C
# output 0

# input So what was the verdict on COc1ccc(C2C3CCc4ccccc4C3=NN2C(=O)c2cc(OC)c(OC)c(OC)c2)cc1O (stereo unspecified) in this test?
# output 0

# input # fetch the recorded call for Cc1n(Cc2ccc3ccccc3n2)cc[n+]1Cc1ccc2ccccc2n1 here
# output 0

# input I'd appreciate the recorded outcome for COc1ccc(C(=O)/C=C/c2cn(-c3ccccc3)nc2-c2cccc(Nc3ccnc4cc(Cl)ccc34)c2)cc1 from this test.
# output 0

# input Each compound tested received a call. Report the one for CCN(CC)c1ccc2nc3c4ccccc4c(=O)cc-3n(-c3ccccc3)c2c1 .
# output 0

# input For Cc1nn(-c2ccc(Cl)cc2)c(=O)n1CCN1CCOCC1 , which call appears in the assay record?
# output 0

# input Recorded test call requested for c1ccc(C(CC2=NCCCN2)c2ccccc2)cc1
# output 0

# input What was the test verdict on COc1cccc(CC(C)=C(c2ccc(OCCCN(C)C)cc2)c2ccc(OCCCN(C)C)cc2)c1 ?
# output 1

# input Given O=C(CCc1nc2sc3c(c2c(=O)[nH]1)CCC3)NCc1cn(-c2ccccc2)nc1-c1ccccc1 , state the outcome it received in this test.
# output 0

# input GET /call?item= C=CCN(CCOC(=O)c1ccc([N+](=O)[O-])cc1)CCOC(=O)c1ccc([N+](=O)[O-])cc1 returns the recorded outcome of this test.
# output 0

# input Could you check what this test reported for CCCCn1c(-c2ccc(F)cc2)nc2cc(OC)c(OC)cc2c1=O ?
# output 0

# input For CN(C)c1ccc(/C=C(\C#N)c2nc3ccccc3n2C)cc1 , which call appears in the assay record?
# output 0

# input So what was the verdict on COc1ccc(-c2nc3ccc(Cc4ccc5nc(-c6ccc(OC)cc6)[nH]c5c4)cc3[nH]2)cc1 in this test?
# output 0

# input Recorded test call requested for NCCCOc1cc2ccccc2cc1C(=O)NCCCOc1cc2ccccc2cc1C(=O)Nc1ccc(Cl)cc1O
# output 1

# input Recorded test call requested for O=C(CSc1ccc(Cl)cc1)Nc1ccc(-c2nc3ccccc3s2)c(Cl)c1
# output 0

# input Recorded call for CCCN(CCC)CC(O)COc1ccccc1C(=O)Nc1ccccc1 (stereo unspecified) ?
# output 0

# input Per the records of this test, what outcome belongs to COc1cccc(NC(=O)c2c(-c3ccccc3)c(-c3ccccc3)n[nH]c2=O)c1 ?
# output 0
